Where do the numbers come from? From the Human Domainome abundance scans (Beltran et al. 2025).

B1: Tudor domain-containing protein 3, residues 554 to 611; numbered along this chain, Q9H7E2 (parent)
chain: KMWKPGDECFALYWEDNKFYRAEVEALHSSGMTAVVKFIDYGNYEEVLLSNIKPIQTE

# Variants of: B1
# ASSAY REMARKS: abundance fitness (aPCA) (normalised: wild type 0, dead -1); higher = more abundant; growth selection in yeast, the domain comes from the species named
# RUN PARAMETERS: Homo sapiens
Dear colleague, classification is by abundance fitness, with ranges listed here: class 0 (below -0.4), class 1 (-0.4 to below -0.07), class 2 (-0.07 or more)

As a guide, the following entries are already answered.
Query string: State the band of N51M
Result string: class 1

Query string: Moving on to the next variant: I52Q
Result string: class 0

Query string: Moving on to the next variant: K37E
Result string: class 0

Query string: Moving on to the next variant: E25D
Result string: class 2

Query string: Moving on to the next variant: I55S
Result string: class 1

Query string: Moving on to the next variant: Q56K
Result string: class 2

Query string: Moving on to the next variant: F38G
Result string: class 0

Query string: Moving on to the next variant: F10S
Result string: class 1

***
Query string: State the band of A26E
Result string: class 2

Query string: Moving on to the next variant: K37R
Result string: class 2
